Attribution: the DeepSol protein solubility set

Test: soluble on expression in E. coli; label from the status in PepcDB or PDB records
ASSAY METRIC: soluble on expression in E. coli

Answered cases to consult:
RECORD SEQUENCE	soluble on expression in E. coli
MKIAIASSGTDLGSEVSRFFGRAPYFMIVEMKKGNIESSEVIENPSASASGGAGIRTAQIIANNGVKAVIASSPGPNAFEVLNELGIKIYRATGTSVEENLKLFTEGNLEEIRSPGSGRGRRRR	soluble
GMVPMTRFDSATEVVRVGENRYAVELDPGYLIGTAMNGGYLMTVLQRSALAESDHLHAVSSSYHFHRPASSGPAEIETRVLKRGRTVTTVQTTLFQEGRTILTGTLATATLDPHAEPRYAAPQPAIPPQHQCRRVDPRQSHLPDDGFLARVDVDFSPDSYAALARERTVTTPELCGYVDLSARDGGSAKDPLAFLPLAVDALPPIVSLLVDWSWAPTVELTWHLRAIPEPGPLAFRSTCALVSDGWFDENVDLWDARGRLVAQSRQLARVGR	soluble
SQFVLQDLQDATLGSLLSSLMQHCDPPQRKYPLEKGTPPPWWPTGNEEWWVKLGLPKSQSPPYRKPHDLKKMWKVGVLTAVINHMLPDIAKIKRHVRQSKCLQDKMTAKESAIWLAVLNQEESLIQQ	soluble
MGSDKIHHHHHHMNAHTIPELRYAMSREAIIGHETAWKVSSFGVAQYLHGYDPALLAAIEEAALKLKDSHAVHKHLDLTFITGADRFIPEIKELLHDKLRLERLSDMMGTKLEPYPLSIVGSTVTFMNPRDGAVEWHCDGVPVTELIPLSISNPLVGGHLEIYCDDSETGRAILESGREIPRNRIMRIDHKMNYATLGQFLGVLHRTAPIQYGERVTLVLNQRSVAKPYVDDNRMFYLAADNDHDREWVNELAEDVWTNQLPAYRRFEAEHPTPAPASETQVSGGARGSW	not soluble
MGSDKIHHHHHHMAPDTSMSSRDALPPLACLRAFEAAARHASFTQAGSELHLTQSAVSRQIKRLEDDLGRPLFERHYEGLRLTPAGERYFGVVQRLLRDLRDETARLRRRGDDRQLTLASSPTIASIWLARQLPDFQRAHPHIEIRILTVEDPHRLDLAEFDLGIYYHVPHEVDPPGLDAEAIFSHEEVAAVCSPAYLARHGDIRDADDLLARHTLMVVEDHYHDWLTWEGWYQAQNLAWRTPEHSLRANSFQLLMNAILAGQGVTLGWTRLLAADLAQHNLVQALPHTLPSRGRLSLLTPQHRHLTEPMRAFRAWVLGPA	not soluble

I'd like to know its soluble on expression in E. coli. The sequence in question is MSLSRIRKAPAGILGFPVAPFNTQGTLEEEALFQNIEFLLNEGLEAIFIACGSGEFQSLSQKEYEQMVEVAVSAAGGKVPVYTGVGGNLSTALDWAQLSEKKGADGYLILPPYLVHGEQEGLYQYAKTIIESTDLNAILYQRDNAVLSVEQIKRLTECEQLVGVKDGVGNMDLNINLVYTIGDRLGWLNGMPMAEVTMPAYLPIGFHSYSSAISNYIPHISRMFYDALKNGNDELVKELYRHVILPINDIRKQRKGYAVSLIKAGMEIMGLNVRNTARPPVGPVEKDHYQQLEAILKQPADRFPKKEGHHHHHH
soluble
